- ASSAY_TEXT: Inhibition of Sulfurihydrogenibium azorense alpha-carbonic anhydrase preincubated for 15 mins by stopped flow CO2 hydration assay
Structures can show the parent of a compound that is named as a salt.
With a cut-off of 400 µM, any Ki strictly below it is called true (1); any Ki meeting it or above is called false (0).

# example entries with known answers
>>> print(df.to_string())
                                   compound      class
0  OB(O)c1ccccc1 [PHENYLBORONIC ACID SODIUM SALT]   true (1)
1  O=S(=O)(O)ONOS(=O)(=O)O [SODIUM IMINODISULFATE]  false (0)
2       O=S([O-])O.[Na+] [SODIUM BISULFITE]  false (0)
3             N=C=S [SODIUM ISOTHIOCYANATE]  false (0)
4                   S [SODIUM HYDROSULFIDE]   true (1)

## Input Quick check: Ki of O=C([O-])O.[Na+] [SODIUM BICARBONATE] under 400 µM?
## Output false (0)

## Input Determine if O=NO [SODIUM NITRITE] shows Ki strictly lower than 400 µM.
## Output false (0)

## Input Please indicate whether the reported Ki of O=S(=O)([O-])[O-].[Na+].[Na+] [SODIUM SULFATE ANHYDROUS] is strictly below 400 µM.
## Output false (0)

## Input Take the compound CCN(CC)C(=S)S [DITIOCARB SODIUM] and say whether its Ki is less than 400 µM.
## Output true (1)

## Input I wonder whether CC(=O)Nc1nnc(S(N)(=O)=O)s1 [ACETAZOLAMIDE] has Ki below 400 µM. Can you tell?
## Output true (1)

## Input Hello, I'm reviewing records and need to know if Ki of F[B-](F)(F)F.[Na+] [SODIUM TETRAFLUOROBORATE] is below 400 µM. Could you check?
## Output false (0)
